Kindly state solubility for each of the entries shown.
experiment: Solubility of the compound; assay type: physicochemical

input: // lookup solubility for Clc1ccc(OCCCn2c3c(c4cc(Cl)ccc42)CCNC3)cc1.O=C(O)C(F)(F)F
output: 54.6 µg/mL

input: Consider next the compound Cc1ccc2c(c1)c1c(n2CCCOc2ccc(Cl)cc2)CNCC1.O=C(O)C(F)(F)F in the same way.
output: 57.5 µg/mL

input: Consider next the compound Clc1ccc(OCCCn2c3c(c4cc(Br)ccc42)CCNC3)cc1.O=C(O)C(F)(F)F in the same way.
output: 19.3 µg/mL

---

Kindly state scaled CLint for each of the entries shown.
assay: Clearance in ICR mouse liver microsomes at 1 uM measured up to 45 mins in presence of NADPH by LC-MS/MS analysis; assay type: ADME, Microsome; conditions: 0.75 h
State the answer as a number, implicitly in mL/min/kg.

input: // lookup scaled CLint for Clc1ccc(OCCCn2c3c(c4cc(Cl)ccc42)CCNC3)cc1.O=C(O)C(F)(F)F
output: 78

input: Consider next the compound Cc1ccc2c(c1)c1c(n2CCCOc2ccc(Cl)cc2)CNCC1.O=C(O)C(F)(F)F in the same way.
output: 477
